Cited source for all entries: PubChem BioAssay

experiment: endothelial E-selectin expression blockers – imaging, HUVEC, immunofluorescence, MLSMR starter and 10KST1 sets, primary screen (AID 487); settings: HUVEC TNFalpha-induced E-selectin immunofluorescence imaging, at 2 µM; active compounds read high;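 also: signal is fraction of cell area covered by stained E-selectin grains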
Property: inhibition (%)

Molecule	Property	Experimental result
COc1ccc(C2/C(=C(/O)c3ccccc3)C(=O)C(=O)N2C)cc1 (configuration not stated)	inhibition	-25.9
C(=C\c1ccccc1)/CSc1nnc(-c2ccccn2)n1Cc1ccco1	inhibition	-95.8
COC(=O)c1cc2oc(C)cc2n1CC(=O)Nc1ccc(C)c(C)c1	inhibition	-84.5
COC(=O)c1ccc(NC(=O)CN2CCN(c3ccc(Cl)cc3)CC2)cc1	inhibition	8.1
CCc1nnc(NC(=O)c2ccc(COc3ccc(C)cc3)o2)s1	inhibition	7.7
COc1ccc(S(=O)(=O)N2CCN(CC(=O)Nc3ccc(C)c(F)c3)CC2)cc1	inhibition	-4.2
CCn1c(SCC(=O)Nc2cccc(C)c2)nc2c(c1=O)SC(C)C2 (configuration not stated)	inhibition	-11.7
Cc1ccc(S(=O)(=O)Nc2nc3ccccc3nc2NCc2ccco2)cc1	inhibition	-39.6
Cn1c(=O)c(=O)n(C)c2cc(S(=O)(=O)Nc3ccc4c(c3)OCCO4)ccc21	inhibition	-21.4
O=C1CCCC2=C1C(c1cccs1)n1nc(SCc3ccccc3F)nc1N2 (configuration not stated)	inhibition	-30.7
Cc1ccc(C)c(N(CC(=O)NCc2ccco2)C(=O)CCC(=O)Nc2ccccn2)c1	inhibition	-41
CCCCCCn1c(SCC(=O)OC)nc2c1c(=O)[nH]c(=O)n2C	inhibition	5
COCCCn1nnnc1SCC(=O)Nc1nc(C)c(C)s1	inhibition	-133
CN(C)S(=O)(=O)c1ccc(C(=O)NCc2cccs2)cc1	inhibition	15.4
Cc1ccc(S(=O)(=O)NCC(=O)N(CC(=O)NCc2ccccc2)CC2CCCO2)cc1 (configuration not stated)	inhibition	-31.2
O=C(Nc1nc(-c2cccs2)cs1)c1cccc(S(=O)(=O)N2CCCCC2)c1	inhibition	-108
Cc1cc(C)cc(N2C(=O)CC(N3CCOCC3)C2=O)c1 (configuration not stated)	inhibition	38.6
